Experiment: growth inhibition of GSK3B-pretreated HCT116 cells – cell-based, CellTiter-Glo, 0.2 to 20 µM (AID 1117336)
Settings: HCT116 viability after GSK3B inhibitor, at 20 µM
Activity calls are given as the source filed them.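 How the source made its calls: active means compounds lowering colon cancer cell viability after pretreatment blocking the GSK3B kinase; inactive means the rest.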
Outcomes: y for active, n for inactive

Compound | Answer label
CCCNC(=O)NS(=O)(=O)c1ccc(Cl)cc1 | n
Nc1ccc(S(=O)(=O)NCc2ccccc2)cc1 | n
CC(=O)Oc1ccc(C(=C2CCCCC2)c2ccc(OC(C)=O)cc2)cc1 | y
CC(C)C1CCC(C(=O)N[C@H](Cc2ccccc2)C(=O)O)CC1 (some centres undefined) | n

====

Assay: growth inhibition of GSK3B-pretreated HCT116 cells – cell-based, CellTiter-Glo, 0.2 to 20 µM (AID 1117336)
Details: HCT116 viability after GSK3B inhibitor, at 20 µM
Active and inactive are the calls of the source.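 The calls were made as follows: active = compounds lowering colon cancer cell viability after pretreatment blocking the GSK3B kinase; inactive = the rest.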
Labels: 1 = active, -1 = inactive

Molecule | Answer label
C=CC[N+]1([C@H]2C[C@H]3[C@@H]4CC[C@H]5C[C@H](OC(C)=O)[C@@H](N6CCCCC6)C[C@]5(C)[C@H]4CC[C@]3(C)[C@H]2OC(=O)CC)CCCCC1 | -1
Cc1cnc(NS(=O)(=O)c2ccc(N)cc2)nc1 | -1
CCN(CC)c1ccc(C(=C2C=CC(=[N+](CC)CC)C=C2)c2cc(S(=O)(=O)O)ccc2S(=O)(=O)[O-])cc1 | -1
NS(=O)(=O)c1cc2c(cc1Cl)CN(C1CCCCC1)C2=O | -1
CC1(S(=O)(=O)O)CC(=O)c2ccccc2C1=O (configuration not stated) | 1
CCN(CCO)CCCC(C)Nc1ccnc2cc(Cl)ccc12 (configuration not stated) | -1
CN(C)CCOC(c1ccccc1)c1ccccc1 | -1

====

Assay: differential killing of epithelial or mesenchymal cells, primary screen, imaging, PC-3E GFP, TEM4-18 mCherry, co-culture (AID 1345086);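 further: cells exposed to compound for 72 h before imaging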
Details: imaging cell counts, measured here: epithelial PC-3E GFP cell survival, at 1 µM
Attribute: normalised cell number
Measured endpoint: normalised cell number

Compound | Readout number
CN=C(NC#N)NCCSCc1nc[nH]c1C | 1.01
CC(C)[N+](C)(CCOC(=O)C1c2ccccc2Oc2ccccc21)C(C)C | 1.02
CCCNC(=O)NS(=O)(=O)c1ccc(Cl)cc1 | 1.08
CN1C(C(=O)Nc2ccccn2)=C(O)c2ccccc2S1(=O)=O | 0.96
CCN(CC)CCCC(C)Nc1ccnc2cc(Cl)ccc12 (configuration not stated) | 0.99
CNC(=O)Oc1ccc2c(c1)[C@]1(C)CCN(C)[C@@H]1N2C | 1.03
Oc1ccc(/C=C/c2cc(O)cc(O)c2)cc1 | 0.97
Cc1cccc(Nc2ccccc2C(=O)O)c1C | 1.18
CC(N=C(NC#N)Nc1ccncc1)C(C)(C)C (configuration not stated) | 1.21
CSc1ccc2c(c1)N(CCC1CCCCN1C)c1ccccc1S2 (configuration not stated) | 0.88
CCOC(=O)C1=C(C)NC(C)=C(C(=O)OC)C1c1cccc([N+](=O)[O-])c1 (configuration not stated) | 1.11
CN(C)CCCN1c2ccccc2Sc2ccc(Cl)cc21 | 0.97
OCCN1CCN(CCCN2c3ccccc3Sc3ccc(C(F)(F)F)cc32)CC1 | 0.78
CNCCCC12CCC(c3ccccc31)c1ccccc12 | 1.11
COCCOC(=O)C1=C(C)NC(C)=C(C(=O)OC(C)C)C1c1cccc([N+](=O)[O-])c1 (configuration not stated) | 1.07
NS(=O)(=O)c1cc2c(cc1C(F)(F)F)NC(Cc1ccccc1)NS2(=O)=O (configuration not stated) | 1.12
O=C1c2c(O)ccc(O)c2C(=O)c2c(NCCNCCO)ccc(NCCNCCO)c21 | 0.2
CN(C)CCCN1c2ccccc2CCc2ccccc21 | 1.07
CCN(CC)CCCC(C)Nc1c2ccc(Cl)cc2nc2ccc(OC)cc12 (configuration not stated) | 0.76
COC1=CC(=O)C[C@@H](C)[C@]12Oc1c(Cl)c(OC)cc(OC)c1C2=O | 1.41
CC(=O)CC(c1ccccc1)c1c(O)c2ccccc2oc1=O (configuration not stated) | 1.05
COc1cc(NC(C)CCCN)c2ncccc2c1 (configuration not stated) | 0.94
Cc1ncc([N+](=O)[O-])n1CC(C)O (configuration not stated) | 1.13
CN(C)CCOC(c1ccccc1)c1ccccc1 | 1.28
CCCCC1=NC2(CCCC2)C(=O)N1Cc1ccc(-c2ccccc2-c2nn[nH]n2)cc1 | 0.82
CCCCc1oc2ccccc2c1C(=O)c1cc(I)c(OCCN(CC)CC)c(I)c1 | 1.02
CCOC(=O)[C@H](CCc1ccccc1)N[C@H]1CCc2ccccc2N(CC(=O)O)C1=O | 1.36

====

Experiment: survival rescue of mitochondrial mutant cells in low glucose, primary screen, MELAS cybrids, Rieske KO mouse fibroblasts, CellTiter-Glo (AID 1508586);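 further: z relative to plate mean and SD of compound and empty wells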
Details: MELAS cybrid survival, CellTiter-Glo 48 h, stronger effect = higher value
Active and inactive are the calls of the source.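 Rule for the calls: active = mean z-score across replicates of 1.96 or higher in either the MELAS or the Rieske mutant cell line; inactive = the rest.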
Measured endpoint: z-score

Compound | Result
CCn1c(-c2nonc2N)nc2cncc(C(=O)NCCNC)c21 | 3 (active)
O=c1n(CCCN2CCN(c3cccc(Cl)c3)CC2)nc2ccccn12 | 0.0745 (inactive)
O=C(Nc1n[nH]c2nc(-c3ccc(O)cc3)c(Br)cc12)C1CC1 | 7.51 (active)
COc1cccc(-n2ncc3c(N/N=C/c4ccc(F)cc4)ncnc32)c1 | 1.48 (inactive)
CCCN1CCCC(c2ccc(Nc3nc(Nc4cc(F)ccc4C(N)=O)c4cc[nH]c4n3)c(OC)c2)C1 (centres undefined) | -0.991
NS(=O)(=O)c1ccc(N=Nc2c(O)[nH]c3ccc(Cl)cc23)cc1 | 1.43 (inactive)
CS(=O)(=O)CCNCc1ccc(-c2ccc3ncnc(Nc4ccc(OCc5ccccc5)c(Br)c4)c3c2)o1 | 0.203 (inactive)
NS(=O)(=O)c1cc2c(cc1C(F)(F)F)NC(Cc1ccccc1)NS2(=O)=O (centres undefined) | 0.478 (inactive)
COC(=O)Nc1nc2ccc(Oc3ccc(NC(=O)Nc4cccc(Br)c4)cc3)cc2[nH]1 | 0.278 (inactive)
COc1cccc(-n2ncc3c(N/N=C/c4cccc(F)c4)ncnc32)c1 | 1.45 (inactive)
CS(=O)(=O)CCN(CC#N)Cc1ccc(-c2ccc3ncnc(Nc4ccc(OCc5cccc(F)c5)c(Cl)c4)c3c2)o1 | -0.391 (inactive)
NCc1ccc(S(N)(=O)=O)cc1 | 0.171 (inactive)
CCc1nn2ncccc2c1-c1ccnc(NC2CC2)n1 | -0.448 (inactive)
CC(=O)Nc1cccc(C#Cc2cncnc2Nc2ccc(OCc3cccc(F)c3)c(Cl)c2)n1 | 0.392 (inactive)
Fc1ccc(-c2ncn(C3CCNCC3)c2-c2ccnc(Oc3cccc(C(F)(F)F)c3)n2)cc1 | -0.429 (inactive)
O=C1NC(=O)C(N2CCc3ccccc32)=C1c1ccc(Cl)cc1 | -0.729 (inactive)
Cc1ccc(C(=O)NC(C)C)cc1-c1ccc(C(=O)NCC2CC2)cc1 | 0.0329 (inactive)
CCn1c(-c2nonc2N)nc2ccccc21 | -0.294 (inactive)
Clc1ccc(-c2nn3ncccc3c2-c2ccnc(Nc3ccccc3)n2)cc1 | 0.298 (inactive)
NS(=O)(=O)c1ccc(-c2ccc3c(NC(=O)C4CC4)n[nH]c3c2)cc1 | -0.641 (inactive)
CCNC(=O)O[C@H]1CN[C@H](C#Cc2cc3ncnc(Nc4ccc(OCc5cccc(F)c5)c(Cl)c4)c3s2)C1 | 0.000408 (inactive)
CNC(=O)c1sc(-n2cnc3cc(OC)c(OC)cc32)cc1OCc1ccccc1C(F)(F)F | -0.801 (inactive)
Fc1cccc(COc2ccc(Nc3ncncc3C#Cc3ccccc3)cc2Cl)c1 | -0.0898 (inactive)
Cc1cc(O)cc(C)c1/C=C/c1cncc(C(=O)N(C)C)c1 | -0.281 (inactive)

====

Tested on: F380Y/beta2Delta
Assay: modulators of BK channel variants, profiling panel, selectivity assay, cell-based, U2OS BacMam, thallium flux, beta subunits (AID 1259406);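 further: initial slope of Thallos dye fluorescence rise after thallium is added; log ratio against the mean of 0.3% DMSO vehicle wells on the same plate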
Settings: at 30 µM
Activity calls are given as the source filed them.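 Rule for the calls: active = thallium flux through the channel raised or lowered by more than 3 SD from vehicle-only wells, actives on both sides; inactive = the rest.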

Compound | log fold change Tl+ flux
NS(=O)(=O)c1cc2c(cc1C(F)(F)F)NCNS2(=O)=O | 0.0255 (inactive)
O=c1[nH]cnc2[nH]ncc12 | -0.00565 (inactive)
N[C@@H](Cc1cc(I)c(Oc2cc(I)c(O)c(I)c2)c(I)c1)C(=O)O | 0.163 (active)
CCN(CC)CCOC(=O)C1(C2CCCCC2)CCCCC1 | 0.0166 (inactive)
O=C(CCCN1CC=C(n2c(=O)[nH]c3ccccc32)CC1)c1ccc(F)cc1 | 0.058 (inactive)
CN1C(C(=O)Nc2ccccn2)=C(O)c2ccccc2S1(=O)=O | 0.0109 (inactive)
CCCSc1ccc2nc(NC(=O)OC)[nH]c2c1 | 0.0117 (inactive)
CC1=NS(=O)(=O)c2cc(Cl)ccc2N1 | 0.0204 (inactive)
O=C(O)c1cc(=O)c2c(OCC(O)COc3cccc4oc(C(=O)O)cc(=O)c34)cccc2o1 | -0.0103 (inactive)
Cc1cccc(Nc2ccncc2S(=O)(=O)NC(=O)NC(C)C)c1 | -0.0041 (inactive)
CC(=O)OCC[N+](C)(C)C | -0.0134 (inactive)
Oc1c(Cl)cc(Cl)c2cccnc12 | 0.437 (active)
CCN(CC)CC(=O)Nc1c(C)cccc1C | -0.0588 (inactive)
CCOC(=O)C1=C(C)NC(C)=C(C(=O)OC)C1c1cccc([N+](=O)[O-])c1 (stereo not drawn) | -0.0689 (inactive)
Cc1ncc([N+](=O)[O-])n1CC(C)O (stereo not drawn) | -0.00369 (inactive)
OC(Cn1cncn1)(Cn1cncn1)c1ccc(F)cc1F | -0.000209 (inactive)
C[C@]12C=CC(=O)C=C1CC[C@@H]1[C@@H]2C(=O)C[C@@]2(C)[C@H]1CC[C@]2(O)C(=O)CO | 0.0137 (inactive)
COC(=O)Nc1nc2ccc(C(=O)c3ccccc3)cc2[nH]1 | -0.00923 (inactive)
